ASSAY_DETAILS: antivirals protecting cells from dengue CPE – CPE readout, HTS (AID 540333)
CONDITIONS: Dengue virus CPE inhibition in host cells, at 20 µM
About 320 (3.2%) of roughly 10,000 compounds were called active. Rule as the data show it: active = CPE inhibition mostly above about 9.1% (no sharp cut-off); inactive = mostly below about 7.2%. The sample holds actives, similar compounds and a random draw of the others, so the mix is not that of the screen.
# output must be one of yes for active, no for inactive

The following compounds have reported results that may help.
- COc1ccccc1NC(=O)c1ccc(NS(=O)(=O)c2ccc(F)c(Cl)c2)cc1: no
- Cc1ccc(/C=N/NS(=O)(=O)c2ccc([N+](=O)[O-])cc2)o1: no
- C=CCOC(=O)C1=C[C@@H](c2coc3ccccc3c2=O)C[C@@H](OCCCCO)O1: no
- COc1ccccc1NC(=O)c1c(Nc2ccccc2F)sc(C(=O)Nc2cccc(Cl)c2)c1N: yes

Lab note: next compound to report on.
Given COc1ccccc1NC(=O)c1c(Nc2ccccc2C)sc(C(=O)Nc2cccc(Cl)c2)c1N , state the outcome it received in this test.
no

----------
ASSAY_DETAILS: antivirals protecting cells from dengue CPE – CPE readout, HTS (AID 540333)
CONDITIONS: Dengue virus CPE inhibition in host cells, at 20 µM
Screen size: about 10,000 compounds; about 320 (3.2%) were called active. No stated cut-off is given here; in the data, active means CPE inhibition mostly above about 9.1% (no sharp cut-off); inactive means mostly below about 7.2%. This excerpt belongs to a sample that is enriched for actives.
One label from this list, please: t for active, f for inactive

* COc1ccc(-c2nn(-c3ccccc3)cc2/C=C(\C#N)S(=O)(=O)c2ccccc2)cc1OC | f
* Cc1nn(-c2ccccc2)c(Cl)c1/C=C(\C#N)C(=O)NC(C)C | t
* COC(=O)c1ccccc1NC(=S)N(Cc1ccc2c(c1)OCO2)Cc1cc2ccc(C)cc2[nH]c1=O | t

Query: recorded result category for CC(NC(=O)/C(C#N)=C/c1cn(-c2ccccc2)nc1-c1ccc(F)cc1)c1ccccc1 (centres undefined) in this test
t

Record request — test call for CC(C)CC(NC(=O)c1ccc(Cl)cc1)C(=O)OCc1cc([N+](=O)[O-])cc2c1OCOC2 (centres undefined)
f

Recorded test outcome, item CCC(=O)Nc1ccc(NC(=O)/C=C/c2ccc(Cl)cc2)cc1
t

----------
ASSAY_DETAILS: antivirals protecting cells from dengue CPE – CPE readout, HTS (AID 540333)
CONDITIONS: Dengue virus CPE inhibition in host cells, at 20 µM
The campaign covered roughly 10,000 compounds. About 320 (3.2%) were called active. No stated cut-off is given here; in the data, active means CPE inhibition mostly above about 9.1% (no sharp cut-off); inactive means mostly below about 7.2%. This is one part of a sample in which actives are shown more often than they occur.
Mark one answer only. Choices: YES (active), NO (inactive)

* CC(C)(C)c1ccc(S(=O)(=O)N2CCCCC2)cc1 | YES
* Cc1ccc2c([N+](=O)[O-])cccc2n1 | NO
* COc1cc(NS(=O)(=O)c2ccc(Cl)cc2)c(C(=O)O)cc1OC | NO
* Cc1c(Cl)cccc1Nc1nc(N)nc(CSc2nc3ccccc3s2)n1 | YES
* COc1ccc(NS(=O)(=O)c2ccc(N3CCOCC3)c(NC(=O)c3ccc(OC)cc3)c2)cc1 | NO
* O=C(COc1ccc(Cl)cc1)OCC(=O)N1CCCc2ccccc21 | NO
* CCc1ccc(OCC(=O)N2c3ccccc3CCc3ccccc32)cc1 | YES
* Cc1ccc(NC(=O)CSc2nnc(CNC(=O)C34CC5CC(CC(C5)C3)C4)n2-c2ccc(F)cc2)cc1 | NO
* Cc1cccc(NC(=S)N(Cc2cccs2)Cc2cc3cc(C)cc(C)c3[nH]c2=O)c1 | NO
* CN(CC(=O)Nc1ccccc1Cl)C(=O)CSc1nc2ccccc2s1 | NO

What is the recorded call for this compound in the test? CNC(=S)N(Cc1cccs1)Cc1cc2cc(OC)ccc2[nH]c1=O
NO

Lab log entry: N#Cc1ccc(C(=O)Nc2cc(S(=O)(=O)Nc3ccc(Cl)cc3)ccc2N2CCCCC2)cc1 — outcome as called in the assay?
YES

How was O=C(Nc1cc(S(=O)(=O)Nc2ccc(Cl)cc2)ccc1N1CCCCC1)c1ccc(F)cc1Cl classified in this test?
NO

Please state the recorded outcome for this compound: Cn1c(=NC(=O)c2ccccc2[N+](=O)[O-])sc2cc(S(C)(=O)=O)ccc21
NO

Would you mind telling me which call this test gave CC(C)(C)c1ccc(S(=O)(=O)N2CCSC2)cc1 ?
NO

Dear colleague, could you share the recorded outcome for COc1ccc(OCC(=O)N2c3ccccc3CCc3ccccc32)cc1 when you have a moment?
NO

Look up the recorded call for C=CCNC(=O)C12CCC(C)(C(=O)C1Br)C2(C)C (configuration not stated) in this test.
NO

----------
ASSAY_DETAILS: antivirals protecting cells from dengue CPE – CPE readout, HTS (AID 540333)
CONDITIONS: Dengue virus CPE inhibition in host cells, at 20 µM
The whole screen tested about 10,000 compounds, of which about 320 (3.2%) were called active. Cut-off read from the data, not from the text of the source: active = CPE inhibition mostly above about 9.1% (no sharp cut-off); inactive = mostly below about 7.2%. The sample holds actives, similar compounds and a random draw of the others, so the mix is not that of the screen.
Select the matching outcome among active, inactive

Below are worked cases with known answers.
• CC1(C)CC(=NOC(=O)c2ccccc2)CC(C)(C)N1O = inactive
• Cc1ccc(SCC(=O)NCc2ccncc2)cc1 = inactive
• CCOC(=O)CN1C(=O)S/C(=C/c2ccc3c(c2)n(C)c(=O)n3C)C1=O = inactive
• COc1cc2c(cc1OC)CN(c1nc(CN3CCOCC3)nc3sc4c(c13)CCC(C)C4)CC2 (configuration not stated) = inactive
• O=C(Nc1cc(Cl)ccc1Oc1ccccc1)c1ccc(F)cc1 = active
• Cc1cccc(Oc2nc(CN3CCOCC3)nc3sc4c(c23)CCCC4)c1 = active
• Cc1cc(-c2n[nH]c(=S)n2/N=C/c2ccccc2[N+](=O)[O-])n[nH]1 = inactive
• C/C(=N\NC(=O)CNc1cccc(C(F)(F)F)c1)c1ccc(Br)cc1 = inactive
• CC(C)Oc1ccc(C(CC(=O)N(C)CCC#N)c2ccc(F)cc2)cc1 (configuration not stated) = inactive
• COc1cc(C)c(S(=O)(=O)N2CCN=C2c2ccccc2)cc1C = inactive

What did the test return for COc1ccc(N(C(=O)CS(=O)CC(=O)Nc2ccc(F)cc2)C(C(=O)NC2CCCCC2)c2cccs2)cc1 (configuration not stated) ?
inactive

Record request — test call for CC(Sc1ncnc2ccccc12)C(=O)Nc1ccc2c(c1)OCCO2 (configuration not stated)
active

Check the results log: what was the call for CC(C)NC(=S)NC(=O)c1ccc(-c2ccccc2)cc1 ?
inactive

Could you kindly confirm the outcome this assay logged for CC(Sc1nc(-c2ccccc2)cc(C(F)(F)F)n1)C(=O)Nc1ccc2c(c1)OCO2 (configuration not stated) ?
inactive

Recorded test outcome, item O=C(CSc1ccccc1)Nc1cc(Cl)ccc1Oc1ccccc1
inactive

// outcome(item) with item = O=C(NC(=S)Nc1ccc(Cc2ccncc2)cc1)c1ccccc1
inactive

Just curious, what result did O=C(CNc1cccc(C(F)(F)F)c1)N/N=C/c1cccc(Br)c1 get here?
active

Fill in: this test's call for CC(C)(C)CNC(=O)c1cccc2c1C(=O)c1ccc(N3CCCC3)cc1S2(=O)=O is ___
inactive

Test call, this compound: CNC(=S)Nc1cc(Cl)ccc1Oc1ccccc1
inactive

Hi, sorry to bother you, what did the test record for O=C(NC(=S)NC(c1ccccc1)c1ccncc1)c1ccccc1 (configuration not stated) ?
active

Dear colleague, could you share the recorded outcome for O=C(NCCc1ccccc1)C(=O)Nc1nccs1 when you have a moment?
inactive

Recorded test call requested for Cc1cc(-c2n[nH]c(=S)n2/N=C/c2cc([N+](=O)[O-])ccc2Cl)n[nH]1
active

----------
ASSAY_DETAILS: antivirals protecting cells from dengue CPE – CPE readout, HTS (AID 540333)
CONDITIONS: Dengue virus CPE inhibition in host cells, at 20 µM
The campaign covered roughly 10,000 compounds. About 320 (3.2%) were called active. No stated cut-off is given here; in the data, active means CPE inhibition mostly above about 9.1% (no sharp cut-off); inactive means mostly below about 7.2%. The list comes from a sample in which actives are over-represented; it also holds close analogues and randomly drawn compounds.
Return exactly one item of active, inactive

Example entries begin here.
* O=C(CCC(=O)N1CCN(S(=O)(=O)c2ccc(Cl)cc2)CC1)Nc1ccc2ccccc2c1 | active
* CCCCn1c(SCc2nc3ccccc3s2)nc2ccccc2c1=O | inactive
* CN(CC(=O)Nc1ccc(S(=O)(=O)N2CCCC2)cc1)Cc1ccc(Cl)cc1Cl | active
* CCOC(=O)c1cccc(S(=O)(=O)N2CCCC2)c1 | inactive
* CC(C)C(=O)NC(=S)Nc1ccc(S(=O)(=O)N2CCCC2)cc1 | inactive

Please share the test call associated with C=CCNC(=O)c1onc(CSc2ccccc2)c1C(=O)NCC=C .
inactive

----------
ASSAY_DETAILS: antivirals protecting cells from dengue CPE – CPE readout, HTS (AID 540333)
CONDITIONS: Dengue virus CPE inhibition in host cells, at 20 µM
The whole screen tested about 10,000 compounds, of which about 320 (3.2%) were called active. No stated cut-off is given here; in the data, active means CPE inhibition mostly above about 9.1% (no sharp cut-off); inactive means mostly below about 7.2%. The sample holds actives, similar compounds and a random draw of the others, so the mix is not that of the screen.
Please state which outcome applies, choosing from active, inactive

What outcome does the record of this test show for Cc1onc(-c2c(F)cccc2Cl)c1C(=O)NC(=S)NCc1cccnc1 ?
inactive

Would you mind telling me which call this test gave Cc1ccc(C)n1-c1ccc(NC(=O)c2ccccc2)cc1 ?
inactive

How did this test come out for CC/C(=N\N=C1\SC(C)C(=O)N1Cc1ccco1)c1ccccc1 (configuration not stated) ?
active

Please indicate how the test categorized N#C/C(=C\c1cn(Cc2cccc(F)c2)c2ccccc12)C(=O)NCc1ccco1 .
inactive

Hey, what did the test say about CCN(CC)S(=O)(=O)c1ccc2oc(C(=O)N3CCc4ccccc4C3)c(C)c2c1 ?
inactive

Test call for this molecule, please: C=CCNC(=O)c1cc(Cl)ccc1[N+](=O)[O-]
inactive

Just curious, what result did COc1cccc(SCc2noc(C(=O)NCCC(C)C)c2C(=O)NCCC(C)C)c1 get here?
active

Lab log entry: CC(=O)N1N=C(c2ccc(Br)cc2)OC1(C)CC(=O)Nc1ccccc1 (configuration not stated) — outcome as called in the assay?
inactive

Give the logged outcome of this assay for the following molecule: CCOC(=O)c1cc(-c2ccccc2)sc1NC(=O)C(C)C
inactive

Write down the call the test reported for this molecule. Item: CN(C)c1ccc(/C=N/NC(=S)NCc2ccco2)cc1
inactive
